target-system: AchR (Homo sapiens, UniProt P02708)
Sequence (P02708 21-457): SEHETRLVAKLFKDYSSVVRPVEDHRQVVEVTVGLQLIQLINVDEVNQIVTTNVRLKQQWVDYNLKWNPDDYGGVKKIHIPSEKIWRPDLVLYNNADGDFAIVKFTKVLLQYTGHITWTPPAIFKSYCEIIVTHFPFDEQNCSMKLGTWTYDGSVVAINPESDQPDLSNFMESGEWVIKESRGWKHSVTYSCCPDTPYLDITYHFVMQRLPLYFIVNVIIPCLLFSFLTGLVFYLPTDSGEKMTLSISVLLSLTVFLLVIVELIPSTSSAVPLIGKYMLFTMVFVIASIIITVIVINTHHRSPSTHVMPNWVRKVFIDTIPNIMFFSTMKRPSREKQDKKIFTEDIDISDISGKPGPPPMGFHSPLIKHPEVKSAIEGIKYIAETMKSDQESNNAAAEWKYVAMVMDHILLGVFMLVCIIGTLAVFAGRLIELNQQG
experimental-details: ELISA of screened peptide phages on AchR versus streptavidin (OD450)
Type: binding
condition-summary: ELISA of selected 14-mer (L3) peptide phages on AchR, absorbance at 450 nm; Spep-2 positive control
Binning rule for recorded OD: low (below 0.7), medium (0.7 to below 0.8), high (0.8 or more)

[[record]]
substance = "L3-164 (QINRVKKSDAKFCT; AchR binding peptide) [Peptide L3-164]"
label = "medium"

[[record]]
substance = "L3-52 (GTFKWRKSGARQYL; AchR binding peptide) [Peptide L3-52]"
label = "medium"

[[record]]
substance = "L3-48 (PHCRQKKFWIRCGT; AchR binding peptide) [Peptide L3-48]"
label = "low"

[[record]]
substance = "L3-184 (DMDKVKKWVWRSFP; AchR binding peptide) [Peptide L3-184]"
label = "medium"

[[record]]
substance = "L3-24 (FVRKKRKSLLRDTR; AchR binding peptide) [Peptide L3-24]"
label = "high"

[[record]]
substance = "L3-158 (FDMRDRRPNARVMP; AchR binding peptide) [Peptide L3-158]"
label = "medium"

[[record]]
substance = "L3-148 (MMARCRRIMCRSFN; AchR binding peptide) [Peptide L3-148]"
label = "low"

[[record]]
substance = "L3-83 (SYLKCKRSDYKEVP; AchR binding peptide) [Peptide L3-83]"
label = "medium"

[[record]]
substance = "L3-116 (YGSKQRRFEEKICG; AchR binding peptide) [Peptide L3-116]"
label = "low"

[[record]]
substance = "L3-179 (YNARVKREGIKNIT; AchR binding peptide) [Peptide L3-179]"
label = "medium"

[[record]]
substance = "L3-27: 14-mer optimized peptide of the L3 library (Table 12, not shown here) (RARKKRKSLLRRQV; AchR binding peptide) [Peptide L3-27]"
label = "high"

[[record]]
substance = "L3-31 (LSDKKRKSLLRYDY; AchR binding peptide) [Peptide L3-31]"
label = "medium"

[[record]]
substance = "L3-191 (GINRGRKVSPKDEQ; AchR binding peptide) [Peptide L3-191]"
label = "medium"

